Cited source: PubChem BioAssay (NCI)

# Test system: SK-MEL-2 melanoma
# assay-protocol: NCI-60 one-dose screen, 48 h
# condition-description: 10 µM unless noted
About 83,000 compounds went through this panel and 20% of them were active in at least one assay; those are over-represented in the sample as a whole. Calls of active or inactive are those of the source. How the source made its calls: active means growth percent below 10; inactive means the rest.
Possible outcomes: active, inactive

1. N#Cc1cnn2c(-c3ccc(Cl)cc3)nc(NC3CC3)nc12    inactive
2. CN1CCN(C(=O)[C@@]2(C)CC[C@]3(C)CC[C@]4(C)C(=CC[C@@H]5[C@@]6(C)C/C(=C/c7ccncc7)C(=O)C(C)(C)[C@@H]6CC[C@]54C)[C@@H]3C2)CC1    inactive
3. COc1cc(C(=O)Nc2cc(O)c(CC=C(C)C)c(O)c2)cc2c1O[C@]1(C)CC[C@@H](O)C(C)(C)[C@H]1C2    inactive
4. Cc1nc(Nc2ccc(S(=O)(=O)Nc3cc(C)on3)cc2)c2ccccc2n1    inactive
5. Nc1nc(I)c2ncn(C3OC(CO)C(O)C3O)c2n1 (stereo not given)    inactive
6. CCC(O)(C(c1ccccc1)c1ccccn1)C(c1ccccc1)c1ccccn1 (stereo not given)    inactive
7. Cc1[nH]c(-c2nc3ccccc3[nH]2)c(C)c1C(=O)N1CCOCC1    inactive
8. COc1cc(NC(=O)c2cccc(-c3cc(=O)c4c(O)c(OC)c(OC)cc4o3)c2)cc(OC)c1OC    inactive
9. CCCN1CCN(c2ccc3nc(-c4ccc5nc(-c6ccc(OCC)c(OCC)c6)[nH]c5c4)[nH]c3c2)CC1    active
10. CC(C)n1nc(C#Cc2cccc(O)c2)c2c(N)ncnc21    active
